These entries and their values trace back to ChEMBL document CHEMBL5252516.

Experiment: Drug uptake in iv dosed BALB/c athymic nude mouse tumor xenografted with human LNCaP cells treated with 68Ga-labeled compound measured upto 120 mins by microPET imaging analysis
Assay type: ADME, organism-based
Settings: in vivo, 2 h
EXPERIMENTAL ENDPOINT: Drug uptake

Below: 8 compounds and their reported Drug uptake.
O=C(O)CC[C@H](NC(=O)N[C@@H](CCCCNC(=O)[C@H](Cc1ccc2ccccc2c1)NC(=O)c1ccc(CNC(=O)CN2CCN(CC(=O)O)CCN(CC(=O)O)CCN(CC(=O)O)CC2)cc1)C(=O)O)C(=O)O    Active
O=C(O)CC[C@H](NC(=O)N[C@@H](CCCCNC(=O)[C@H]1CC[C@H](CNC(=O)c2ccc(CNC(=O)CN3CCN(CC(=O)O)CCN(CC(=O)O)CCN(CC(=O)O)CC3)cc2)CC1)C(=O)O)C(=O)O    Not Active
O=C(O)CC[C@H](NC(=O)N[C@@H](CCCCNC(=O)c1ccc(CNC(=O)c2ccc(CNC(=O)c3ccc(CNC(=O)CN4CCN(CC(=O)O)CCN(CC(=O)O)CCN(CC(=O)O)CC4)cc3)cc2)cc1)C(=O)O)C(=O)O    Active
O=C(O)CC[C@H](NC(=O)N[C@@H](CCCCNC(=O)[C@@H](Cc1ccc2ccccc2c1)NC(=O)[C@H]1CC[C@H](CNC(=O)CN2CCN(CC(=O)O)CCN(CC(=O)O)CCN(CC(=O)O)CC2)CC1)C(=O)O)C(=O)O    Active
O=C(O)CC[C@H](NC(=O)N[C@@H](CCCCNC(=O)[C@H](Cc1cccc2ccccc12)NC(=O)[C@H]1CC[C@H](CNC(=O)CN2CCN(CC(=O)O)CCN(CC(=O)O)CCN(CC(=O)O)CC2)CC1)C(=O)O)C(=O)O    Not Active
O=C(O)CC[C@H](NC(=O)N[C@@H](CCCCNC(=O)[C@H](Cc1ccc2ccccc2c1)NC(=O)[C@H]1CC[C@H](CNC(=O)CN2CCN(CC(=O)O)CCN(CC(=O)O)CCN(CC(=O)O)CC2)CC1)C(=O)O)C(=O)O [VIPIVOTIDE TETRAXETAN]    Active
O=C(O)CC[C@H](NC(=O)N[C@@H](CCCCNC(=O)[C@H](Cc1ccc(-c2ccccc2)cc1)NC(=O)CN1CCN(CC(=O)O)CCN(CC(=O)O)CCN(CC(=O)O)CC1)C(=O)O)C(=O)O    Active
O=C(O)CC[C@H](NC(=O)N[C@@H](CCCCNC(=O)[C@H]1CC[C@H](CNC(=O)[C@H]2CC[C@H](CNC(=O)CN3CCN(CC(=O)O)CCN(CC(=O)O)CCN(CC(=O)O)CC3)CC2)CC1)C(=O)O)C(=O)O    Not Active

As a next step, examine the compound that follows.
Exam item: Find the recorded Drug uptake belonging to O=C(O)CC[C@H](NC(=O)N[C@@H](CCCCNC(=O)[C@H]1CC[C@H](CNC(=O)CN2CCN(CC(=O)O)CCN(CC(=O)O)CCN(CC(=O)O)CC2)CC1)C(=O)O)C(=O)O and report it.
Marked response: Not Active

====

Below: a set of entries, each annotated with reported Ratio.
Experiment: Ratio of drug uptake in tumor to muscle in iv dosed BALB/c athymic nude mouse xenografted with human LNCaP cells treated with 68Ga-labeled compound measured after 1 hr by microPET imaging analysis
Assay type: ADME, organism-based
Settings: in vivo

Below: 6 compounds and their reported Ratio.
O=C(O)CC[C@H](NC(=O)N[C@@H](CCCCNC(=O)CCCCCNC(=O)c1ccc(CNC(=O)CN2CCN(CC(=O)O)CCN(CC(=O)O)CCN(CC(=O)O)CC2)cc1)C(=O)O)C(=O)O    3.8
O=C(O)CC[C@H](NC(=O)N[C@@H](CCCCNC(=O)[C@H]1CC[C@H](CNC(=O)[C@H](Cc2ccc3ccccc3c2)NC(=O)CN2CCN(CC(=O)O)CCN(CC(=O)O)CCN(CC(=O)O)CC2)CC1)C(=O)O)C(=O)O    3.5
O=C(O)CC[C@H](NC(=O)N[C@@H](CCCCNC(=O)[C@H]1CC[C@H](CNC(=O)CN2CCN(CC(=O)O)CCN(CC(=O)O)CCN(CC(=O)O)CC2)CC1)C(=O)O)C(=O)O    1.5
O=C(O)CC[C@H](NC(=O)N[C@@H](CCCCNC(=O)[C@H](Cc1ccc2ccccc2c1)NC(=O)c1ccc(CNC(=O)CN2CCN(CC(=O)O)CCN(CC(=O)O)CCN(CC(=O)O)CC2)cc1)C(=O)O)C(=O)O    5.2
O=C(O)CC[C@H](NC(=O)N[C@@H](CCCCNC(=O)[C@H]1CC[C@H](CNC(=O)c2ccc(CNC(=O)CN3CCN(CC(=O)O)CCN(CC(=O)O)CCN(CC(=O)O)CC3)cc2)CC1)C(=O)O)C(=O)O    3.9
O=C(O)CC[C@H](NC(=O)N[C@@H](CCCCNC(=O)[C@H]1CC[C@H](CNC(=O)[C@H]2CC[C@H](CNC(=O)[C@H]3CC[C@H](CNC(=O)CN4CCN(CC(=O)O)CCN(CC(=O)O)CCN(CC(=O)O)CC4)CC3)CC2)CC1)C(=O)O)C(=O)O    0.9

Exam item: Find the recorded Ratio belonging to O=C(O)CC[C@H](NC(=O)N[C@@H](CCCCNC(=O)[C@H](Cc1ccc2ccccc2c1)NC(=O)CN1CCN(CC(=O)O)CCN(CC(=O)O)CCN(CC(=O)O)CC1)C(=O)O)C(=O)O and report it.
Marked response: 1.6

Exam item: Then this compound: O=C(O)CC[C@H](NC(=O)N[C@@H](CCCCNC(=O)[C@H](Cc1ccc2ccccc2c1)NC(=O)CCCCCNC(=O)CN1CCN(CC(=O)O)CCN(CC(=O)O)CCN(CC(=O)O)CC1)C(=O)O)C(=O)O
Marked response: 2

Exam item: Then this compound: O=C(O)CC[C@H](NC(=O)N[C@@H](CCCCNC(=O)[C@H]1CC[C@H](CNC(=O)[C@H]2CC[C@H](CNC(=O)CN3CCN(CC(=O)O)CCN(CC(=O)O)CCN(CC(=O)O)CC3)CC2)CC1)C(=O)O)C(=O)O
Marked response: 2.3

Exam item: Then this compound: O=C(O)CC[C@H](NC(=O)N[C@@H](CCCCNC(=O)[C@H](Cc1ccc(-c2ccccc2)cc1)NC(=O)CN1CCN(CC(=O)O)CCN(CC(=O)O)CCN(CC(=O)O)CC1)C(=O)O)C(=O)O
Marked response: 2.7

Exam item: Then this compound: O=C(O)CC[C@H](NC(=O)N[C@@H](CCCCNC(=O)c1ccc(CNC(=O)c2ccc(CNC(=O)CN3CCN(CC(=O)O)CCN(CC(=O)O)CCN(CC(=O)O)CC3)cc2)cc1)C(=O)O)C(=O)O
Marked response: 5.6

Exam item: Then this compound: O=C(O)CC[C@H](NC(=O)N[C@@H](CCCCNC(=O)c1ccc(CNC(=O)c2ccc(CNC(=O)c3ccc(CNC(=O)CN4CCN(CC(=O)O)CCN(CC(=O)O)CCN(CC(=O)O)CC4)cc3)cc2)cc1)C(=O)O)C(=O)O
Marked response: 5.4

Exam item: Then this compound: O=C(O)CC[C@H](NC(=O)N[C@@H](CCCCNC(=O)[C@H](Cc1cccc2ccccc12)NC(=O)[C@H]1CC[C@H](CNC(=O)CN2CCN(CC(=O)O)CCN(CC(=O)O)CCN(CC(=O)O)CC2)CC1)C(=O)O)C(=O)O
Marked response: 3.6

Exam item: Then this compound: O=C(O)CC[C@H](NC(=O)N[C@@H](CCCCNC(=O)c1ccc(CNC(=O)c2ccc(CNC(=O)c3ccc(CNC(=O)c4ccc(CNC(=O)CN5CCN(CC(=O)O)CCN(CC(=O)O)CCN(CC(=O)O)CC5)cc4)cc3)cc2)cc1)C(=O)O)C(=O)O
Marked response: 2.1

Exam item: Then this compound: O=C(O)CC[C@H](NC(=O)N[C@@H](CCCCNC(=O)c1ccc(CNC(=O)CN2CCN(CC(=O)O)CCN(CC(=O)O)CCN(CC(=O)O)CC2)cc1)C(=O)O)C(=O)O
Marked response: 2.2

Exam item: Then this compound: O=C(O)CCc1ccc(O)c(CN(CCN(CC(=O)O)Cc2cc(CCC(=O)NCCCCCC(=O)NCCCC[C@H](NC(=O)N[C@@H](CCC(=O)O)C(=O)O)C(=O)O)ccc2O)CC(=O)O)c1 [GOZETOTIDE]
Marked response: 4.9

====

Assay: Distribution coefficient, logD of the compound at pH 7.4 in n-octanol/0.1 M HEPES by shake flask method
Format: physicochemical
Below: a set of entries, each annotated with reported logD.
Lab note: record just the number, no unit beside it.

O=C(O)CC[C@H](NC(=O)N[C@@H](CCCCNC(=O)c1ccc(CNC(=O)c2ccc(CNC(=O)CN3CCN(CC(=O)O)CCN(CC(=O)O)CCN(CC(=O)O)CC3)cc2)cc1)C(=O)O)C(=O)O    -1.94

Exam item: Find the recorded logD belonging to O=C(O)CC[C@H](NC(=O)N[C@@H](CCCCNC(=O)CCCCCNC(=O)c1ccc(CNC(=O)CN2CCN(CC(=O)O)CCN(CC(=O)O)CCN(CC(=O)O)CC2)cc1)C(=O)O)C(=O)O and report it.
Marked response: -1.92

Exam item: Then this molecule: O=C(O)CC[C@H](NC(=O)N[C@@H](CCCCNC(=O)[C@H]1CC[C@H](CNC(=O)[C@H]2CC[C@H](CNC(=O)CN3CCN(CC(=O)O)CCN(CC(=O)O)CCN(CC(=O)O)CC3)CC2)CC1)C(=O)O)C(=O)O
Marked response: -1.12

Exam item: Then this molecule: O=C(O)CC[C@H](NC(=O)N[C@@H](CCCCNC(=O)c1ccc(CNC(=O)c2ccc(CNC(=O)c3ccc(CNC(=O)c4ccc(CNC(=O)CN5CCN(CC(=O)O)CCN(CC(=O)O)CCN(CC(=O)O)CC5)cc4)cc3)cc2)cc1)C(=O)O)C(=O)O
Marked response: -2.12
